Reference source for all entries: the nanobody polyreactivity screen of Harvey et al. (2022)

Assay: yeast display, Sf9 membrane polyspecificity reagent, FACS + sequencing; frameworks hold sequencing errors

{"polymer sequence": "QVQLVESGGGLVQAGGSLRLSSAASGFTFWSKAMGWYRQAPGKERELVAAISRGGSTYYADSVKGRFTITRDNAKNTVYLQMNSLKPEDTAVYYCAAVRLSRVYYWGQGTQVTVSS", "polyreactivity (PSR sort gate)": "high polyreactivity"}
{"polymer sequence": "QVQLVESGGGLVQAGGSLRLICAASGLIFDYYAMGWYRQSPGKDRELVAAITSSSGITYYADSVKGRFTISRDNAKNTVSLQMNSLKPEDTAVYYCNADTRTTTRRFNPYDYWGQGTQVTVSS", "polyreactivity (PSR sort gate)": "low polyreactivity"}
{"polymer sequence": "QVQLVESGGGLVQAGGSLRLSCAASGSTFHGYTIGWSRQAPGKERELVAAISSRGTSTYYADSVKGRFTISRDNAMNTVYLQMNSLKTEDTAVYYCATRGWDKYWGQGTQVTVSS", "polyreactivity (PSR sort gate)": "high polyreactivity"}
{"polymer sequence": "QVQLVQSGGGLVQAGGSLRLSCDASGSMFLVYAMGWYRQAPGKERELVAAISRSGRTYADSVKGRFTISRDNAKNTVYLQMNSLKPEDTAVYYCAAGTKRRFEGDYWVQGTQVTVSS", "polyreactivity (PSR sort gate)": "high polyreactivity"}
{"polymer sequence": "QVQLVESGGGLVQAGGSLRLSCAASGFILGWYAMGWYRQAPGKERELVADISASGTRTYYADSVKGRFTISRDNAKNTVYLQMNSLKPEDTAVYYCNVYTKFVYAYDYWGQGTQVTLSS", "polyreactivity (PSR sort gate)": "high polyreactivity"}
{"polymer sequence": "QVQLHESGGGLCRRAAASSGAASGTISFLYYMGWYRQAPGQEREFVAGINNGTTTNYADSVKGRFTNSRDNAKNTVYLQMNSLKPEDTAVYYCAVRKPYKATTASGFEYWGQGTQVTVSS", "polyreactivity (PSR sort gate)": "high polyreactivity"}
{"polymer sequence": "QVQLVESGGGLVQAGGSLRLRCAASGRTFWWNAMGWYRQAPGKERELVAGTYSRGGGTYYADSVKGRFTISRDNAKNRVYLQMNRLKAEDTAVYYCASQAPVYRYYYWGQGTQVTVSS", "polyreactivity (PSR sort gate)": "high polyreactivity"}
{"polymer sequence": "QVQLVESGGGLVQAGGSLRLSCAASGFTFNSYAMGWYRQAPGKERELVAAITWRGGSTYADSVKGRFTISRDNAKNTVYLQMNSLKPEDTAVYYCNAVSDVKRYDYWGQGTQVTVSS", "polyreactivity (PSR sort gate)": "high polyreactivity"}
{"polymer sequence": "QVQLVESGGGLVQAGGSLRLSCAASGLIFYYYAKGWYRQAPGKEREFVAAISRSGGITRYADSVKGRFTISRDNAKITVYLQMNSLKPEDTAVYYCAADDYPLTYDDYYWGQGTQVTVSS", "polyreactivity (PSR sort gate)": "high polyreactivity"}
{"polymer sequence": "QVQLVESGGGLVQAGGSLRLSCAASGITFPSYAMGWYRQAPGKERELVATISRGDSTYYADSVKGRFTISRDNAKNTVYLQMNSLKPEDTAVYYCATRAYRLDPLQHDYWGQGTQVTVSS", "polyreactivity (PSR sort gate)": "low polyreactivity"}
{"polymer sequence": "QVQLVDSGGGLVQAGGSLRLSSAASGFIFQANAMGSSRQAPGKERELVAAIDDGDSTYADSVKGRFTISRDNAKNSVYLQMNSLKPEDTAVYYCATRRNRSYDYWGQGTQVTVSS", "polyreactivity (PSR sort gate)": "low polyreactivity"}
{"polymer sequence": "QVQLVESGGGLVQAGGSLRLSCAASGFIFRYYAMGWYRQAPGKERELVAAISSSGGCTYYADSVKGRFTISRDNSKNTVYLLMNRMKPEDTAVYFCAARDLRKLFSLYPYYYWGQGTHVTVSS", "polyreactivity (PSR sort gate)": "high polyreactivity"}
{"polymer sequence": "QVHLGDSGGGLVQAGGSLRLSCAASGRIFWTYAMGWYRQAPGKERELVAAIRWSSGSTRYADSVKGRFTISRDNAKNTVYLQLNSVKPEDTAVYYCAADAFRSQRPYTYDYWGQGTQVTVSS", "polyreactivity (PSR sort gate)": "high polyreactivity"}
{"polymer sequence": "QVQLVESGGGLVQAGGSLRLSCAASGRIFTLYTMGWYRQAPGKERELVARITRSGGTTYYADSVKGRFTISRDNSKNTVYLQMNSLKPEDTAVYYCNVDDYFWPGAKFDYWGQGTQVTVSS", "polyreactivity (PSR sort gate)": "low polyreactivity"}
